Where do the numbers come from? From the supplement of paper PMC11417369.

- System: PfAP2-G AP2 domain (GST-tagged)
- Protocol details: gcPBM binding intensity (ln(normalized median fluorescence intensity)); higher = stronger DNA binding
Whole data set: some 25,000 sequences, median “ln(normalized median fluorescence intensity)” near 10, cut for the highest 2% near 12. What follows is part of a selection rich in the highest values, with near analogues and random picks from the rest.
Entries and their measured gcPBM binding intensity (ln) follow.
Reported property: gcPBM binding intensity (ln)

| Ordered residues | Reported property | Numeric readout |
| --- | --- | --- |
| TTAATATTTTGATGTGTACACATTAAAATAGTTTTA [CACACA_site5712] | gcPBM binding intensity (ln) | 11.8 |
| TCGGGAGGGGGGAAGCGTACATATATAAAATTATTA [XGTACX_site4683] | gcPBM binding intensity (ln) | 11.7 |
| GAAAAAGACAAAAGGTGTACAATATGAAATATATAT [XGTACX_site373] | gcPBM binding intensity (ln) | 11.5 |
| GATGATGTTTATTTGTGTACATATTAATACTTAATA [XGTACX_site1902] | gcPBM binding intensity (ln) | 11.4 |
| ACATATTAATTATAAAGTACATATATATATATATAT [XGTACX_site4540] | gcPBM binding intensity (ln) | 11.3 |
| ATATATATATCTAATTGTACATATTTTATAAATAAG [XGTACX_site4840] | gcPBM binding intensity (ln) | 11 |
| ACTATTTTCTTCAAAACATGCACCACATAAACATAA [TGCATGCA_site200] | gcPBM binding intensity (ln) | 10.6 |
| TATTAAAAATGTTAAGTGCAAAAATAAAAATTGTGG [GTGCAC_site9854] | gcPBM binding intensity (ln) | 10.2 |
| AAAAATTCATTTTTATGTACGTACAAATTCTTCGTT [XGTACX_site2471] | gcPBM binding intensity (ln) | 11.8 |
| GATGATAAAATATGTACACACAGTTTATACATTTTG [CACACA_site4055] | gcPBM binding intensity (ln) | 11.3 |
| AAATAAGAAAAAGCGCGTACACATAACATTTTTATA [XGTACX_site8807] | gcPBM binding intensity (ln) | 11.7 |
| TATTTCAAATGTTATGTGCACATATTAATCCTACTT [GTGCAC_site9738] | gcPBM binding intensity (ln) | 10.5 |
| ATATAAATATTTATTAGTACACATTAGTGTAGTTTT [XGTACX_site4493] | gcPBM binding intensity (ln) | 11.5 |
| TATATATATATAAGAAGTACAGAAAATTAGAAAAAA [XGTACX_site8773] | gcPBM binding intensity (ln) | 11.7 |
| AATGTACACCCACCCACACACAAACAAATATATATA [CACACA_site5521] | gcPBM binding intensity (ln) | 11.4 |
| CATTTAAAATTTGTTTGTACATATATATATATATAT [XGTACX_site6729] | gcPBM binding intensity (ln) | 11 |
| TATATATAAGAAAAAAGTACAGATATATATATATTC [XGTACX_site4788] | gcPBM binding intensity (ln) | 11.6 |
| AATTTTTCATCAAGTTGTACAATTATTTGTTTGTTT [XGTACX_site3113] | gcPBM binding intensity (ln) | 11.3 |
| ATAGTCTTAATGACTACACACCTAACTATGCATGCA [CACACA_site5084] | gcPBM binding intensity (ln) | 9.88 |
| TAAATTATATTATGCACACTTAAAAATATATTTAAC [CACACA_site3512] | gcPBM binding intensity (ln) | 10.1 |
| AAAAGAAATATTTATACACACACACTAACATATATA [CACACA_site8580] | gcPBM binding intensity (ln) | 10.1 |
| GAAATGTGTAGACACGCACACACAAAAAAATATATA [CACACA_site2912] | gcPBM binding intensity (ln) | 10.2 |
| ACAAAATGTAGAAAATGTACAAAATTAACAAAAGAA [XGTACX_site5019] | gcPBM binding intensity (ln) | 10.7 |
| AACATATTAATGTACACACACCCACGCACAAACAAA [CACACA_site7320] | gcPBM binding intensity (ln) | 11.5 |
| ATATTAATATATGTGGCACACATGTGGAGTCCTATT [CACACA_site213] | gcPBM binding intensity (ln) | 10.7 |
| TTTTTGTTCTATATGGTGCATGTTTATATTCGTATT | gcPBM binding intensity (ln) | 10.2 |
| TATATAAAAAGTAATTGTACATATATATATATATAT [XGTACX_site7953] | gcPBM binding intensity (ln) | 10.9 |
| ATCATAAAAGTATACACACATACATACATATGTACA [CACACA_site2641] | gcPBM binding intensity (ln) | 10.8 |
| AATAATTTTTAAATATAAACATTTTTTTTTTTTTTT [GTGCAC_negctrl_site532] | gcPBM binding intensity (ln) | 9.72 |
| GGGGGGGGAGGGTGAATACACACGTAATAATCATAA [CACACA_site1716] | gcPBM binding intensity (ln) | 11.6 |
| ATAATTATCATAGGATGTACATATTTATTTTGTATA [XGTACX_site7797] | gcPBM binding intensity (ln) | 11.2 |
| ATATATTCATTTTTATGTACGTAAATTGTAAATTGG [XGTACX_site8242] | gcPBM binding intensity (ln) | 11.6 |
| TAATTCTTTATTTTTCGTACGTAAAACAAAAAATAT [XGTACX_site862] | gcPBM binding intensity (ln) | 11.1 |
| ATTATAACACCTCCCCCCCTTTTTTTATGAAGACCA [CACACA_negctrl_site1043] | gcPBM binding intensity (ln) | 11.8 |
| TATAAATAGAGGAAGCGTACATATATATATATATAT [XGTACX_site4993] | gcPBM binding intensity (ln) | 11.3 |
| CCAATAATATATAGAAGTACAGAAAAAAAAAAAAAA [XGTACX_site2049] | gcPBM binding intensity (ln) | 11.5 |
| TATGTTTTTGAATGAGTGCATTAAAATAAAACATTT | gcPBM binding intensity (ln) | 10.2 |
| TAATATGAAATGTGTACACACGCACCCACAAAAAAA [CACACA_site8949] | gcPBM binding intensity (ln) | 11.8 |
| AATGTGTACGCACGCACACACAAAAAAATATATATA [CACACA_site2913] | gcPBM binding intensity (ln) | 11.6 |
